The following molecules are listed with their measured Activation (fold), Ras GTPase activation values.
System: c-HaRas protein
assay-method-text: Ras GTPase stimulating activity: hydrolysis of [gamma-32P] GTP bound to c-HaRas protein, by GST fusion NF1 mutants
Type: biochemical, murine
measurement-context: 20 ug/ml NF1 mutants; 25° C., 20 minutes
assay-metric: Activation (fold), Ras GTPase activation

[[record]]
molecule = "NF 292: NF1 fragment, residues 1205-1496 (protein, UniProt P21359 1205-1496, looked up, fragment) FERLVELVTMMGDQGELPIAMALANVVPCSQWDELARVLVTLFDSRHLLYQLLWNMFSKEVELADSMQTLFRGNSLASKIMTFCFKVYGATYLQKLLDPLLRIVITSSDWQHVSFEVDPTRLEPSESLEENQRNLLQMTEKFFHAIISSSSEFPPQLRSVCHCLYQATCHSLLNKATVKEKKENKKSVVSQRFPQNSIGAVGSAMFLRFINPAIVSPYEAGILDKKPPPRIERGLKLMSKILQSIANHVLFTKEEHMRPFNDFVKSNFDAARRFFLDIASDCPTSDAVNHSL"
assay_value = 11

[[record]]
molecule = "NF 266: NF1 fragment, residues 1175-1440 (protein, UniProt P21359 1175-1440, looked up, fragment) TRATFMEVLTKILQQGTEFDTLAETVLADRFERLVELVTMMGDQGELPIAMALANVVPCSQWDELARVLVTLFDSRHLLYQLLWNMFSKEVELADSMQTLFRGNSLASKIMTFCFKVYGATYLQKLLDPLLRIVITSSDWQHVSFEVDPTRLEPSESLEENQRNLLQMTEKFFHAIISSSSEFPPQLRSVCHCLYQATCHSLLNKATVKEKKENKKSVVSQRFPQNSIGAVGSAMFLRFINPAIVSPYEAGILDKKPPPRIERGLK"
assay_value = 0

[[record]]
molecule = "NF91: NF1 fragment, amino acid residues 1441 to 1531; GST fusion in Table II, expressed from pMV7 plasmid in cells (protein, UniProt P21359 1441-1531, looked up, fragment, GST fusion) LMSKILQSIANHVLFTKEEHMRPFNDFVKSNFDAARRFFLDIASDCPTSDAVNHSLSFISDGNVLALHRLLWNNQEKIGQYLSSNRDHKAV"
assay_value = 10

